- Test system: CD2F1 mice, L1210 leukemia ip, survival T/C
- assay-explanation: NCI In Vivo Anticancer Drug Screen. Data for tumor model L1210 Leukemia (intraperitoneal) in CD2F1 (CDF1) mice
- experimental-context: endpoint: mean survival time; dose: 400.0 mg/kg/injection; schedule: Q01DX009 (ip); vehicle: Klucel (hydroxypropylcellulose) (HPC); higher = longer survival
Toxic doses and inconclusive results are not listed.
quantity: T/C

{"columns": ["molecule", "quantity", "recorded-value"],
 "data": [
  ["CC1(C)CC(C)(OC(=O)c2ccccc2)N=N1 (stereo not drawn)", "T/C", "101 % of control"],
  ["CC(=O)C(C)(NCc1ccccc1)c1ccccc1 (stereo not drawn)", "T/C", "106 % of control"],
  ["NP(=O)(OCCC(=O)OCc1ccccc1)N(CCCl)CCCl (stereo not drawn)", "T/C", "97 % of control"],
  ["Nc1ncn[nH]1", "T/C", "106 % of control"],
  ["Cc1ccc(NC(=O)Nc2ccccc2C(N)=O)c([N+](=O)[O-])c1", "T/C", "95 % of control"]
]}

[in] Requested read-out: T/C. Entry: "CC(C)(C)CC(C)(C)c1ccc(OCCOc2ccc(CC(=S)N3CCOCC3)cc2)cc1"
[out] 98 % of control

[in] Requested read-out: T/C. Entry: "CCCCCCCCCCCCCCCCOc1ccc(C(=O)OC)cc1NS(=O)(=O)c1ccc(C(=O)O)cc1"
[out] 98 % of control

[in] Requested read-out: T/C. Entry: CC(=O)OC1C(OC(C)=O)C(OC(C)=O)C2OC(C)(C)OC2C1OC(C)=O (stereo not drawn)
[out] 100 % of control

---

Quick list: T/C per entry.
- Tested on: CD2F1 mice, L1210 leukemia ip, survival T/C
- assay-explanation: NCI In Vivo Anticancer Drug Screen. Data for tumor model L1210 Leukemia (intraperitoneal) in CD2F1 (CDF1) mice
- experimental-context: endpoint: mean survival time; dose: 50.0 mg/kg/injection; schedule: Q01DX009 (ip); vehicle: Klucel (hydroxypropylcellulose) (HPC); higher = longer survival
Inconclusive results and toxic doses are left out.

These solved cases illustrate the format of a correct answer.
{"columns": ["compound", "recorded-value"],
 "data": [
  ["Cc1ccc(Cc2cc(=O)[nH]c(=O)[nH]2)cc1", "100 % of control"],
  ["Cc1ccc([N+](=O)[O-])cc1NC(=O)Nc1c(C)n(C)n(-c2ccccc2)c1=O", "93 % of control"],
  ["CC(=O)C1CCC2(C)C(CCC3C4CCC(C(C)=O)C4(C)CC(=O)C32)C1 (stereo not drawn)", "96 % of control"],
  ["NNS(=O)(=O)c1ccc(Oc2ccc(S(=O)(=O)NN)cc2)cc1", "101 % of control"],
  ["CC1(CCCc2ccc(N(CCCl)CCCl)cc2)NC(=O)NC1=O (stereo not drawn)", "114 % of control"],
  ["COCC1OC2OC3C(COC)OC(OC4C(COC)OC(OC5C(COC)OC(OC6C(COC)OC(OC7C(COC)OC(OC8C(COC)OC(OC1C(O)C2O)C(O)C8O)C(O)C7O)C(O)C6O)C(O)C5O)C(O)C4O)C(O)C3O (stereo not drawn) (tested in a mixture with another compound)", "98 % of control"],
  ["O=C(O)CSCc1ccc(Cl)cc1Cl", "98 % of control"]
]}

We next turn to a different compound, shown below.
[in] Requested read-out: T/C. Entry: "CC(=O)OCc1cc(=O)n(C)c2c3c4c(cc12)c(C)cc(=O)n4CO3"
[out] 119 % of control

---

- System: CD2F1 mice, L1210 leukemia ip, survival T/C
- assay-explanation: NCI In Vivo Anticancer Drug Screen. Data for tumor model L1210 Leukemia (intraperitoneal) in CD2F1 (CDF1) mice
- experimental-context: endpoint: mean survival time; dose: 50.0 mg/kg/injection; schedule: Q01DX005 (ip); vehicle: distilled water + Tween-80; higher = longer survival
Toxic doses and inconclusive results are not listed.
Quick list: T/C per entry.

{"columns": ["compound", "target", "T/C"],
 "data": [
  ["CC(=O)OC1C(C)OC(n2ncc(=O)[nH]c2=O)C(OC(C)=O)C1OC(C)=O (centres undefined)", "CD2F1 mice, L1210 leukemia ip, survival T/C", "103 % of control"],
  ["Nc1ccn(C2CC3[O][Sn]([c]4ccccc4)([c]4ccccc4)[O]CC3O2)c(=O)n1 (centres undefined)", "CD2F1 mice, L1210 leukemia ip, survival T/C", "88 % of control"],
  ["Nc1ncnc2c1ncn2C1OC(COP(N)(N)=O)C(O)C1O (centres undefined)", "CD2F1 mice, L1210 leukemia ip, survival T/C", "96 % of control"]
]}

We next turn to a different compound, shown below.
[in] Requested read-out: T/C. Entry: CCCCCCC(Sc1nn(C2OC(COC(=O)c3ccccc3)C(OC(=O)c3ccccc3)C2OC(=O)c2ccccc2)c(=O)[nH]c1=O)C(=O)OCC (centres undefined)
[out] 94 % of control

---

- System: CD2F1 mice, L1210 leukemia ip, survival T/C
- assay-explanation: NCI In Vivo Anticancer Drug Screen. Data for tumor model L1210 Leukemia (intraperitoneal) in CD2F1 (CDF1) mice
- experimental-context: endpoint: mean survival time; dose: 400.0 mg/kg/injection; schedule: Q01DX009 (ip); vehicle: saline with Tween-80
Toxic doses and inconclusive results are not listed. The calls were made as follows: active = survival T/C of 150% or more; inactive = T/C below 125% in these data.
Give your call using only these classes: True = active, False = inactive

Example cases with answers are listed next.
{"columns": ["compound", "class"],
 "data": [
  ["CC(=O)c1ccc(NCN2C(=O)c3ccccc3C2=O)cc1", "False"],
  ["O=C1CN=C(c2ccccn2)c2cc(Cl)ccc2N1", "False"],
  ["CCOC(=O)Cc1cccc(CC(O)(c2ccccc2)c2ccccc2)n1", "False"],
  ["C[Si](C)(CCl)N[Si](C)(C)CCl", "False"],
  ["CCOC(=O)c1c(C)csc1NC(C)=O", "False"],
  ["O=S(=O)(Nc1ccc2ccccc2c1)c1ccccc1", "False"]
]}

[in] Which outcome was assigned to COC(=O)C1(C)CCCC2(C)C1CCC1(O)C2CC2OC2(C(C)C)C1O (centres undefined) in this test?
[out] False

[in] Which outcome was assigned to "O=C(CNC(=O)c1ccccc1)N/N=C/c1ccco1" in this test?
[out] False

---

- Tested on: CD2F1 mice, L1210 leukemia ip, survival T/C
- assay-explanation: NCI In Vivo Anticancer Drug Screen. Data for tumor model L1210 Leukemia (intraperitoneal) in CD2F1 (CDF1) mice
- experimental-context: endpoint: mean survival time; dose: 100.0 mg/kg/injection; schedule: Q01DX009 (ip); vehicle: other; higher = longer survival
Toxic doses and inconclusive results are not listed.
quantity: T/C

These solved cases illustrate the format of a correct answer.
{"columns": ["molecule", "T/C"],
 "data": [
  ["COc1cccc(NC(=O)NC2C(OC(C)=O)OC(COC(C)=O)C(OC(C)=O)C2OC(C)=O)c1 (configuration not stated)", "90 % of control"],
  ["Clc1ccc(N=C/C=C/c2ccccc2)cc1", "95 % of control"],
  ["COc1ncc(C2OC(CO)C(O)C2O)c(OC)n1 (configuration not stated)", "96 % of control"],
  ["CCCCCCCCCC(O)CCCCCCCCC", "102 % of control"],
  ["OC(Cc1[nH]c2ccccc2c1C(O)(C(F)(F)F)C(F)(F)F)(C(F)(F)F)C(F)(F)F", "101 % of control"],
  ["COc1ccc(CC(C)NC(=O)c2ccc(OC)c(OC)c2)cc1OC (configuration not stated)", "93 % of control"]
]}

[in] Requested read-out: T/C. Entry: "CCOC(=O)Nc1cccc([N+](=O)[O-])c1"
[out] 98 % of control

---

- System: CD2F1 mice, L1210 leukemia ip, survival T/C
- assay-explanation: NCI In Vivo Anticancer Drug Screen. Data for tumor model L1210 Leukemia (intraperitoneal) in CD2F1 (CDF1) mice
- experimental-context: endpoint: mean survival time; dose: 100.0 mg/kg/injection; schedule: Q04DX003 (ip); vehicle: saline with Tween-80; higher = longer survival
Toxic doses and inconclusive results are not listed.
quantity: T/C

{"columns": ["molecule", "recorded-value"],
 "data": [
  ["CCOC(=O)C1CC(=O)C(C(=O)OCC)CC1=O (configuration not stated)", "100 % of control"]
]}

[in] Requested read-out: T/C. Entry: CC(CCl)C(C#N)(c1ccccc1)c1ccccc1 (configuration not stated)
[out] 101 % of control

[in] Requested read-out: T/C. Entry: "Nc1ncnc2c1ncn2CCCl"
[out] 97 % of control

[in] Requested read-out: T/C. Entry: "Cc1ccc(-c2nn[nH]n2)cc1[N+](=O)[O-]"
[out] 95 % of control

[in] Requested read-out: T/C. Entry: "COc1cccc(/C(C)=N\NC(=O)c2ccccc2)c1"
[out] 96 % of control

[in] Requested read-out: T/C. Entry: "C/C(=C\C(=O)Nc1ccc(S(=O)(=O)F)cc1)c1ccc([N+](=O)[O-])cc1"
[out] 104 % of control

[in] Requested read-out: T/C. Entry: "COC(=O)c1ccc(SSc2ccc(C(=O)OC)cc2[N+](=O)[O-])c([N+](=O)[O-])c1"
[out] 103 % of control

[in] Requested read-out: T/C. Entry: "CCc1cc(C)cc(OC(=O)Nc2cccc(Cl)c2)c1"
[out] 88 % of control

[in] Requested read-out: T/C. Entry: "NCCS/C=C(\Br)C(=O)OCc1ccc(Br)cc1"
[out] 96 % of control

[in] Requested read-out: T/C. Entry: CC(=O)CC(Br)CBr (configuration not stated)
[out] 96 % of control

[in] Requested read-out: T/C. Entry: "COc1ccc(C(CO)=C(c2ccc(OC)cc2)c2ccc(OC)cc2)cc1"
[out] 103 % of control

[in] Requested read-out: T/C. Entry: "CN(C)S(=O)(=O)C1(c2ccccc2)CCCC1"
[out] 102 % of control
